B1: Hairpin Ribozyme (parent)
chain: GUCCUCUUUCACGUGCGCGUGAAAGAGAGAAGUGAACCAGAGAAACACACGUUGUGGUAUAUUACCUGGUA

Variants of: B1
assay info: self-cleavage, relative activity (ratio to wild type); higher = more cleavage; co-transcriptional
Use 0.2 as the dividing line for self-cleavage, with the line itself on the y side and lower values as n.

variant notation	category
C16A A36U	y

Threshold query (self-cleavage >= 0.2) on G32U U70G
n

API: above_or_equal(metric=self-cleavage, cutoff=0.2) for item A31G A36C
y

Could you verify whether the entry U5A U62G shows self-cleavage of no less than 0.2?
n

Reported self-cleavage reaches at least 0.2 for G32A A43G ?
n

Given U8A U62G , state whether its self-cleavage is at least 0.2.
n

Dear colleague, could you confirm whether A39C A61C has self-cleavage at or above 0.2?
n

In plain terms: is recorded self-cleavage at least 0.2 for U33C A36G ?
n

Hi team, for G17U G19C , is the recorded self-cleavage at or above 0.2?
y

Is reported self-cleavage greater than or equal to 0.2 here: U67G U70G
n

Dear colleague, could you confirm whether C18A A23U has self-cleavage at or above 0.2?
y

Please indicate if the recorded self-cleavage for U20C G56U meets or exceeds 0.2.
y

Hi, just wondering whether U8C A39C shows self-cleavage of 0.2 or higher.
y

Check this variant for self-cleavage at or above 0.2: A28U A47C
n

Reported self-cleavage at or above 0.2? C18U G32U
n
